Source listed as patent US12060349B2.

# Tested on: GM3 expression on the cell surface, B16 mouse melanoma cells
# Assay Protocol: cell based phenotypic assay, cell surface GM3 by antibody mediated immunofluorescence, B16 (GM3 B16 IC50)
# Condition: Mus musculus, B16 mouse melanoma cells; 50% inhibition of GM3 expression on the cell surface; read-out: GM3 B16 IC50
pIC50: −log10 of the molar value.
Property Label: pIC50

> print(dat)
                                    molecule                           measured.target  property.label  value.reported
 1  COCCCOc1cnc(-c2ccc(C(C)(C)NC(=O)N3CCN4CCC3CC4)cc2)cn1  GM3 expression on the cell surface, B16 mouse melanoma cells           pIC50            5.84
 2  C[C@@H]1CN(C(=O)NC2(C)CCN3CCC2CC3)CCN1c1ncc(Oc2ccc(F)cc2)cn1 (some centres unmarked)  GM3 expression on the cell surface, B16 mouse melanoma cells           pIC50            7.12
 3  CNC(=O)c1ccc(-c2ccc(C(C)(C)NC(=O)NC3(C)CCN4CCC3CC4)cc2)cc1 (centres unmarked)  GM3 expression on the cell surface, B16 mouse melanoma cells           pIC50            5.47
 4  COCCCc1ccc(-c2ccc(C3(NC(=O)NC4(C)CN5CCC4CC5)CC3)cc2)cc1 (centres unmarked)  GM3 expression on the cell surface, B16 mouse melanoma cells           pIC50            7.48
 5  CC1(NC(=O)C2(F)CCN(c3ccc(Oc4ccc(F)cc4)nn3)CC2)CCN2CCC1CC2 (centres unmarked)  GM3 expression on the cell surface, B16 mouse melanoma cells           pIC50            6.46
 6  CCC1(NC(=O)NC(C)(C)c2ccc(-c3ccc(C(=O)N4CCCCC4)cc3)cc2)CN2CCC1CC2 (centres unmarked)  GM3 expression on the cell surface, B16 mouse melanoma cells           pIC50            7.17
 7  CC(C)(NC(=O)NC1(C)CN2CCC1CC2)c1ccc(-c2ccc(N3CCOCC3)cc2)cc1 (centres unmarked)  GM3 expression on the cell surface, B16 mouse melanoma cells           pIC50            7.19
 8  COCCCOc1ccc(-c2ccc(C(C)(C)NC(=O)N3CCN4CCC3CC4)cc2)cc1  GM3 expression on the cell surface, B16 mouse melanoma cells           pIC50            6.41
 9  CCC1(NC(=O)NC(C)(C)C#Cc2ccc(COCc3cccnc3)cc2)CN2CCC1CC2 (centres unmarked)  GM3 expression on the cell surface, B16 mouse melanoma cells           pIC50            6.02
10  CN(C)C(=O)c1ccc(Oc2ccc(C(C)(C)NC(=O)OC3CCN4CCC3CC4)cc2)cc1 (centres unmarked)  GM3 expression on the cell surface, B16 mouse melanoma cells           pIC50            6.10
11  COCCOc1ccc(-c2ccnc(N3CCC(F)(C(=O)N[C@]4(C)CN5CCC4CC5)CC3)n2)cc1  GM3 expression on the cell surface, B16 mouse melanoma cells           pIC50            7.32
12  CC(C)(NC(=O)OC1CCN2CCC1CC2)c1ccc(-c2ccc(CCc3c[nH]nn3)cc2)cc1 (centres unmarked)  GM3 expression on the cell surface, B16 mouse melanoma cells           pIC50            7.09
13  COCCOc1ccc(-c2cccc(N3CCC(C(=O)NC4(C)CCN5CCC4CC5)CC3)c2)cc1 (centres unmarked)  GM3 expression on the cell surface, B16 mouse melanoma cells           pIC50            6.88
14  CNC(=O)c1ccc(-c2ccc(C(C)(C)NC(=O)OC3CCN4CCC3CC4)cc2)cc1 (centres unmarked)  GM3 expression on the cell surface, B16 mouse melanoma cells           pIC50            6.19
15  O=C(NC1CN2CCC1CC2)N1CCN(c2cccc(-c3ccccc3)c2)CC1 (centres unmarked)  GM3 expression on the cell surface, B16 mouse melanoma cells           pIC50            5.17
16  COCCOc1cnc(N2CCC(C(=O)NC3(C)CCN4CCC3CC4)CC2)nc1-c1ccc(F)cc1 (centres unmarked)  GM3 expression on the cell surface, B16 mouse melanoma cells           pIC50            7.29
17  CCC1(NC(=O)NC(C)(C)c2ccc(-c3ccc(C(=O)N4CCC(F)(F)CC4)cc3)cc2)CN2CCC1CC2 (centres unmarked)  GM3 expression on the cell surface, B16 mouse melanoma cells           pIC50            7.60
18  CC(C)(NC(=O)OC1CCN2CCC1CC2)c1cccc(Oc2cccc(C(=O)N3CCOCC3)c2)c1 (centres unmarked)  GM3 expression on the cell surface, B16 mouse melanoma cells           pIC50            5.84
19  COCCCOc1ccc(-c2ccnc(N3CCC(C(=O)NC4CN5CCC4CC5)CC3)n2)cc1 (centres unmarked)  GM3 expression on the cell surface, B16 mouse melanoma cells           pIC50            7.10
20  CCCC1(NC(=O)NC(C)(C)C#Cc2ccc(CCOC)cc2)CN2CCC1CC2 (centres unmarked)  GM3 expression on the cell surface, B16 mouse melanoma cells           pIC50            6.91
21  COCCOCc1ccc(-c2ccc(C(C)(C)NC(=O)NC3(C)CN4CCC3CC4)cc2)cc1 (centres unmarked)  GM3 expression on the cell surface, B16 mouse melanoma cells           pIC50            6.93
22  CCOc1ccc(-c2cccc(C(C)(C)NC(=O)OC3CCN4CCC3CC4)c2)nn1 (centres unmarked)  GM3 expression on the cell surface, B16 mouse melanoma cells           pIC50            6.92
23  CC1(NC(=O)C2CCN(c3nccc(-c4ccc(F)cc4)n3)CC2)CCN2CCC1CC2 (centres unmarked)  GM3 expression on the cell surface, B16 mouse melanoma cells           pIC50            8.01
24  CC(C)(NC(=O)OC1CCN2CCC1CC2)c1ccc(-c2ccc(C(=O)N3CCC(F)(F)CC3)cc2)cc1 (centres unmarked)  GM3 expression on the cell surface, B16 mouse melanoma cells           pIC50            7.22
25  COCCOc1ccc(-c2ccc(C(C)(C)NC(=O)N3CCN4CCC3CC4)cc2)cc1  GM3 expression on the cell surface, B16 mouse melanoma cells           pIC50            6.51
26  CN(C)C(=O)c1ccc(Oc2ccc(C(C)(C)NC(=O)NC3(C)CN4CCC3CC4)cc2)cc1 (centres unmarked)  GM3 expression on the cell surface, B16 mouse melanoma cells           pIC50            5.42
27  CNC(=O)c1ccc(Oc2ccc(C(C)(C)NC(=O)NC3(C)CCN4CCC3CC4)cc2)cc1 (centres unmarked)  GM3 expression on the cell surface, B16 mouse melanoma cells           pIC50            6.07
28  CC(C)(NC(=O)NC1(C)CCN2CCC1CC2)c1ccc(Oc2ccc(C(=O)N3CC(F)(F)C3)cc2)cc1 (centres unmarked)  GM3 expression on the cell surface, B16 mouse melanoma cells           pIC50            7.41
29  COCCCOc1ccc(-c2nc(N3CC(C(=O)NC4(C)CCN5CCC4CC5)C3)ncc2F)cc1 (centres unmarked)  GM3 expression on the cell surface, B16 mouse melanoma cells           pIC50            6.92
30  COCc1ccc(-c2nc(N3CCC(C(=O)NC4(C)CN5CCC4CC5)CC3)ncc2F)cc1 (centres unmarked)  GM3 expression on the cell surface, B16 mouse melanoma cells           pIC50            7.28
31  COCc1ccc(-c2ncnc(N3CCN(C(=O)NC4(C)CCN5CCC4CC5)CC3C(C)C)n2)cc1 (centres unmarked)  GM3 expression on the cell surface, B16 mouse melanoma cells           pIC50            5.74
32  COCCOCc1ccc(-c2ccnc(N3CCC(C)(C(=O)NC4(C)CN5CCC4CC5)CC3)n2)cc1 (centres unmarked)  GM3 expression on the cell surface, B16 mouse melanoma cells           pIC50            5.72
